Compiled from multiple publications: IC50 readings for Cyclin-dependent kinase 2 (Homo sapiens, UniProt P24941).

INSERT INTO results (compound, measurement_label, observed_measurement) VALUES
  ('COc1ccc(NC(=O)c2ccc(C(=O)Nc3ccc(-c4c(C)noc4C)cc3)s2)c(C)c1', 'IC50', '≥ 40000 nM'),
  ('C[C@]1(O)CC[C@@H](Nc2nc3c(cc2OCCOCCO)ncn3-c2ccc(C#N)cn2)CC1', 'IC50', '944 nM'),
  ('O=S(=O)(NCCO)c1ccc(Nc2nc(Nc3ccc(C(F)(F)F)cc3)c3cn[nH]c3n2)cc1', 'IC50', '377 nM'),
  ('Nc1cccc(-c2cc(Nc3ccc(S(N)(=O)=O)cc3)[nH]n2)c1', 'IC50', '1.02 to 10 nM'),
  ('N#Cc1ccc(-n2cnc3cc(OCCOCCO)c(NC4CCS(=O)(=O)CC4)nc32)nc1', 'IC50', '> 1330 nM'),
  ('CN1CCN(c2ccc(Nc3ncc(-c4ccccc4)o3)cc2)CC1', 'IC50', '< 10000 nM');

Next compound, IC50 to be filled in.
Qu. Field request: IC50 | item: N#Cc1cc2cnc(NC3CCN(S(=O)(=O)C(F)(F)F)CC3)nc2n(C2CCCC2)c1=O
Ans. 3410 nM
